Target: Type-B CCK receptor (Cavia porcellus, UniProt H0VZC5)
Construct: Cortical and pancreatic membranes were prepared as described; from tissue; host or cells: guinea pig cerebral cortex membranes
Sequence (H0VZC5 1-426): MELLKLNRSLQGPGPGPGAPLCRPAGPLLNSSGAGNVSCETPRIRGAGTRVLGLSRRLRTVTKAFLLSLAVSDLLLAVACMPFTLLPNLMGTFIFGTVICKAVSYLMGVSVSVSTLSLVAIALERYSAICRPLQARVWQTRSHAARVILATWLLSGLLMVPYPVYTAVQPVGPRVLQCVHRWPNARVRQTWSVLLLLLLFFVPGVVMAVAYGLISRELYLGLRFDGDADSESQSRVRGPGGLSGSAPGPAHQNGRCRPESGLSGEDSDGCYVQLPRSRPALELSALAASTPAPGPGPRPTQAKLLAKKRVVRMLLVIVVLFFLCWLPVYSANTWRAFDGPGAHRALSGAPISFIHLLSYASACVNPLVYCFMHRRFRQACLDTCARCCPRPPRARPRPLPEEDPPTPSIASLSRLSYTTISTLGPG
Test: Radioligand binding of [125I]BH-CCK-8 in guinea pig cerebral cortical membrane preparations
Settings: IC50 (nM) 125I-BH-CCK-8 Type-B receptor, guinea pig cortical membranes, 30° C., 150 minutes
Procedure: CCK-8 [Asp-Tyr(SO3 H)-Met-Gly-Trp-Met-Asp-PheNH2 ], bestatin and phosphoramidion were purchased from Peptide International (Louisville, Ky.). […] [^125 I]Bolton-Hunter CCK-8 and test compounds were diluted with HEPES-EGTA-salt buffer (see above) containing 0.5% BSA. […] IC50 s were determined from the Hill analysis.
*1 amine or outer side, *2 acyl side, *3 side chain or, on linkers, in order; H or OH if unused. Where a SMILES comes first, the peptide text is derived from it. Side-chain parts run from the residue outwards. [ ]: non-standard residue; d: D form. The star is where a group is joined. NMeF = CN[C@@H](Cc1ccccc1)C(=O)O; NH(2-Me-phenyl) = Cc1ccccc1N*; CO = O=C([*:1])[*:2]; NHPh = c1ccc(N*)cc1
Measurement Type: IC50 (nM)
Write the value in nM as a bare number.

Task item: Give the reported value of IC50 for this record: Cc1ccccc1NC(=O)NCCCC[C@H](NC(=O)C1Cc2c[nH]c3cccc(c23)CC(=O)N1)C(=O)N[C@@H](CC(=O)O)C(=O)N(C)[C@@H](Cc1ccccc1)C(N)=O (some centres unmarked) [Example 112]
Reply: 900

Task item: Please report IC50 for the following compound: CNC(=O)N[C@@H](Cc1c[nH]c2ccccc12)C(=O)N[C@@H](CCCCNC(=O)Nc1ccccc1C)C(=O)N[C@@H](CC(=O)O)C(=O)N(C)[C@@H](Cc1ccccc1)C(N)=O [Example 83] ({NHMe-CO}-WK([CO-NH(2-Me-phenyl)])D[NMeF]-NH2)
Reply: 4900

Task item: Please give the documented IC50 of Cc1ccccc1NC(=O)NCCCC[C@H](NC(=O)[C@H](Cc1c[nH]c2ccccc12)NC(=O)Nc1ccccc1)C(=O)N[C@@H](CC(=O)O)C(=O)N(C)[C@@H](Cc1ccccc1)C(N)=O [Example 84] ({NHPh-CO}-WK([CO-NH(2-Me-phenyl)])D[NMeF]-NH2)
Reply: 3000

Task item: Supply reported IC50 belonging to this compound: CC(=O)N[C@@H](Cc1c[nH]c2ccccc12)C(=O)N[C@@H](CCCCNC(=O)Nc1ccccc1C)C(=O)N[C@@H](CC(=O)O)C(=O)N(C)[C@@H](Cc1ccccc1)C(N)=O [Example 85] (Ac-WK([CO-NH(2-Me-phenyl)])D[NMeF]-NH2)
Reply: 10000

---

Molecular target: Type-A CCK receptor (Cavia porcellus)
Construct: Cortical and pancreatic membranes were prepared as described; from tissue; host or cells: guinea pig pancreas membranes
Sequence (Q63931 1-430): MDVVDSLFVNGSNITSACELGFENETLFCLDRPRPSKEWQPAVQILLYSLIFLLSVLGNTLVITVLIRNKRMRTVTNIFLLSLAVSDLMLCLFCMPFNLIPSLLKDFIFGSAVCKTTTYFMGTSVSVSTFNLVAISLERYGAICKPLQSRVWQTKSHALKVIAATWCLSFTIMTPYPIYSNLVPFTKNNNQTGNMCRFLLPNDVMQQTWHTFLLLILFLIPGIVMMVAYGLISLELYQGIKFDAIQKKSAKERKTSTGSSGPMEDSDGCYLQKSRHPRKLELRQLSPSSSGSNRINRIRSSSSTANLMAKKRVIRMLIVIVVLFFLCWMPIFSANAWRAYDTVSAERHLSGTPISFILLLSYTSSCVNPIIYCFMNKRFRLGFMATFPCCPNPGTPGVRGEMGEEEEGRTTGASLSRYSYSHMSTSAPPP
Assay: Radioligand binding of [125I]BH-CCK-8 in guinea pig pancreatic membrane preparations
Conditions: IC50 (nM) 125I-BH-CCK-8 Type-A receptor, guinea pig pancreatic membranes, 37° C., 150 min
*1 amine or outer side, *2 acyl side, *3 side chain or, on linkers, in order; H or OH if unused. Where a SMILES comes first, the peptide text is derived from it. Side-chain parts run from the residue outwards. [ ]: non-standard residue; d: D form. The star is where a group is joined. ξ: configuration not given here. NMeW = CN[C@@H](Cc1c[nH]c2ccccc12)C(=O)O; ξαMeW = CC(N)(Cc1c[nH]c2ccccc12)C(=O)O; 1Nal = N[C@@H](Cc1cccc2ccccc12)C(=O)O; Butanoyl(3,3-Me2) = CC(C)(C)CC(=O)*; Isobutyloxycarbonyl = CC(C)COC(=O)*; NMeF = CN[C@@H](Cc1ccccc1)C(=O)O; NMeD = CN[C@@H](CC(=O)O)C(=O)O; NH(2-Me-phenyl) = Cc1ccccc1N*; PhAc = O=C(Cc1ccccc1)*; CO = O=C([*:1])[*:2]
Measurement Type: IC50 (nM)
Only the number, expressed in nM, is required.

Task item: // fetch IC50 given entry Cc1ccccc1NC(=O)NCCCC[C@H](NC(=O)C(C)(N)Cc1c[nH]c2ccccc12)C(=O)N[C@@H](CC(=O)O)C(=O)N[C@@H](Cc1ccccc1)C(N)=O (some centres unmarked) [Example 97] (H-[ξαMeW]K([CO-NH(2-Me-phenyl)])DF-NH2)
Reply: 11

Task item: Complete the entry with IC50 for Cc1ccccc1NC(=O)NCCCC[C@H](NC(=O)[C@H](Cc1c[nH]c2ccccc12)NC(=O)OCC(C)C)C(=O)N[C@@H](CC(=O)O)C(=O)N(C)[C@@H](Cc1ccccc1)C(N)=O [Example 77] (Isobutyloxycarbonyl-WK([CO-NH(2-Me-phenyl)])D[NMeF]-NH2)
Reply: 2.3

Task item: Provide only the value of recorded IC50 for Cc1ccccc1NC(=O)NCCCC[C@H](NC(=O)C(C)(N)Cc1c[nH]c2ccccc12)C(=O)N(C)[C@@H](CC(=O)O)C(=O)N[C@@H](Cc1ccccc1)C(N)=O (some centres unmarked) [Example 123] (H-[ξαMeW]K([CO-NH(2-Me-phenyl)])[NMeD]F-NH2)
Reply: 5.9

Task item: Give the reported value of IC50 for this record: CN[C@@H](Cc1c[nH]c2ccccc12)C(=O)N[C@@H](CCCCNC(=O)Nc1ccccc1C)C(=O)N(C)[C@@H](CC(=O)O)C(=O)N[C@@H](Cc1cccc2ccccc12)C(N)=O [Example 100] (H-[NMeW]K([CO-NH(2-Me-phenyl)])[NMeD][1Nal]-NH2)
Reply: 8

Task item: Please report IC50 for the following molecule: Cc1ccccc1NC(=O)NCCCC[C@H](NC(=O)[C@H](Cc1c[nH]c2ccccc12)NC(=O)CC(C)(C)C)C(=O)N(C)[C@@H](CC(=O)O)C(=O)N[C@@H](Cc1ccccc1)C(N)=O [Example 88B] ({Butanoyl(3,3-Me2)}-WK([CO-NH(2-Me-phenyl)])[NMeD]F-NH2)
Reply: 3.7

Task item: Retrieve IC50 measured for Cc1ccccc1NC(=O)NCCCC[C@H](NC(=O)[C@H](Cc1c[nH]c2ccccc12)NC(=O)Cc1ccccc1)C(=O)N[C@@H](CC(=O)O)C(=O)N(C)[C@@H](Cc1ccccc1)C(N)=O [Example 91] (PhAc-WK([CO-NH(2-Me-phenyl)])D[NMeF]-NH2) and print it.
Reply: 19

Task item: Give a short answer stating reported IC50 for CNC(=O)N[C@@H](Cc1c[nH]c2ccccc12)C(=O)N[C@@H](CCCCNC(=O)Nc1ccccc1C)C(=O)N[C@@H](CC(=O)O)C(=O)N(C)[C@@H](Cc1ccccc1)C(N)=O [Example 83] ({NHMe-CO}-WK([CO-NH(2-Me-phenyl)])D[NMeF]-NH2) .
Reply: 9.7

Task item: Give the reported IC50 for this molecule. Cc1ccccc1NC(=O)NCCCC[C@H](NC(=O)[C@H](Cc1c[nH]c2ccccc12)NC(=O)CC(C)(C)C)C(=O)N[C@@H](CC(=O)O)C(=O)N(C)[C@@H](Cc1ccccc1)C(N)=O [Example 87] ({Butanoyl(3,3-Me2)}-WK([CO-NH(2-Me-phenyl)])D[NMeF]-NH2)
Reply: 4.5

---

Biological target: Type-A CCK receptor (Cavia porcellus, UniProt Q63931)
Construct: Cortical and pancreatic membranes were prepared as described; from tissue; host or cells: guinea pig pancreas membranes
Experiment: Radioligand binding of [125I]BH-CCK-8 in guinea pig pancreatic membrane preparations
Conditions: guinea pig pancreatic membranes, 37° C., 150 min; read-out: IC50 (nM) 125I-BH-CCK-8 Type-A receptor
Method: CCK-8 [Asp-Tyr(SO3 H)-Met-Gly-Trp-Met-Asp-PheNH2 ], bestatin and phosphoramidion were purchased from Peptide International (Louisville, Ky.). […] [^125 I]Bolton-Hunter CCK-8 and test compounds were diluted with HEPES-EGTA-salt buffer (see above) containing 0.5% BSA. […] IC50 s were determined from the Hill analysis.
*1 amine or outer side, *2 acyl side, *3 side chain or, on linkers, in order; H or OH if unused. Where a SMILES comes first, the peptide text is derived from it. Side-chain parts run from the residue outwards. [ ]: non-standard residue; d: D form. The star is where a group is joined. X12 = O=C(C=Cc1ccc(C(F)(F)F)cc1)*; NMeF = CN[C@@H](Cc1ccccc1)C(=O)O; NMeD = CN[C@@H](CC(=O)O)C(=O)O; NH(2-Me-phenyl) = Cc1ccccc1N*; Boc = CC(C)(C)OC(=O)*; X3 = O=C(C=Cc1cccs1)*; CO = O=C([*:1])[*:2]; Ms = CS(=O)(=O)*
Provide the reported IC50 of each item.
Reply with the number and its unit after it.

Task item: Identify the reported IC50 for the following entry. CN(C(=O)[C@H](CCCCNC(=O)C=Cc1cccs1)NC(=O)[C@H](Cc1c[nH]c2ccccc12)NC(=O)OC(C)(C)C)[C@@H](CC(=O)O)C(=O)N[C@@H](Cc1ccccc1)C(N)=O [Example 66] (Boc-WK(X3)[NMeD]F-NH2)
Reply: 35 nM

Task item: Determine its reported IC50: Cc1ccccc1NC(=O)NCCCC[C@H](NC(=O)C(C#N)Cc1c[nH]c2ccccc12)C(=O)N[C@@H](CC(=O)O)C(=O)N(C)[C@@H](Cc1ccccc1)C(N)=O (some centres unmarked)
Reply: 20 nM

Task item: Please indicate IC50 recorded for Cc1ccccc1NC(=O)NCCCC[C@H](NC(=O)CCc1c[nH]c2ccccc12)C(=O)N(C)[C@@H](CC(=O)O)C(=O)N[C@@H](Cc1cccc2ccccc12)C(N)=O
Reply: 6.1 nM

Task item: Specify measured IC50 for Cc1ccccc1NC(=O)NCCCC[C@H](NC(=O)[C@H](Cc1c[nH]c2ccccc12)NS(C)(=O)=O)C(=O)N[C@@H](CC(=O)O)C(=O)N(C)[C@@H](Cc1ccccc1)C(N)=O [Example 95] (Ms-WK([CO-NH(2-Me-phenyl)])D[NMeF]-NH2) .
Reply: 47 nM

Task item: For the compound CC(C)(C)OC(=O)N[C@@H](Cc1c[nH]c2ccccc12)C(=O)N[C@@H](CCCCNC(=O)C=Cc1ccc(C(F)(F)F)cc1)C(=O)N[C@@H](CC(=O)O)C(=O)N[C@@H](Cc1ccccc1)C(N)=O [Example 8] (Boc-WK(X12)DF-NH2) , give its reported IC50.
Reply: 200 nM

Where do these numbers come from? They come from patent US5270302A.
